All figures here come from ChEMBL document CHEMBL5608113.

Test system: Colon cancer organoid
experiment: Targeting of F14 CAF-induced therapy resistance in O23 CRC organoid-stroma co-culture. Cell viability is reported without Gefitinib.
Type: functional, Homo sapiens
condition_notes: Homo sapiens, Concentration 10 uM; read-out: Cell Viability
readout: viability at 10 µM (%)
Reply numerically in %, unit not repeated.

* CCCCN(CCCC)C(=O)CN1C[C@@H](c2cc(OC)c3c(c2)OCO3)[C@H](C(=O)O)[C@H]1CC(C)(C)CCC | 142
* O=C(NNS(=O)(=O)c1ccccc1)c1cc(-c2ccnnc2)ccc1F | 75.6
* CCCCNc1ncc(-c2ccc(CN3CCOCC3)cn2)c(N[C@H]2CC[C@H](O)CC2)n1 | 18.1
* CC1=C(C)C(=O)C(C(C)(C)CC(=O)N(CCCCSC[C@H]2O[C@@H](n3cnc4c(N)ncnc43)[C@@H]3OC(C)(C)O[C@@H]32)Cc2cccc(-c3ccc(Cl)cc3)c2)=C(C)C1=O | 8.34
* COc1cc(C(=O)N2CC[C@@H](O)[C@@H](N)C2)cc2nc(-c3cc4ccccc4n3CC3CC3)n(C)c12 | 112
* COc1cc(Nc2ncc3c(n2)-c2ccc(Cl)cc2C(c2c(F)cccc2OC)=NC3)ccc1C(=O)O | 32.9

# lookup: viability at 10 µM of "Nc1ncnc2c1ccn2[C@@H]1O[C@H]([C@H](O)c2ccccc2)[C@@H](O)[C@H]1O" 97.6
